B1: FAM116A (parent)
chain: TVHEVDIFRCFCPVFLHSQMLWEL

- Variants of: B1
- procedure.summary: protein stability index of a GFP-peptide fusion (GPS, HEK-293T) (PSI 1-6); higher = more stable;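 further: lentivirally expressed fusions sorted by FACS into six bins by GFP to DsRed ratio, PSI derived from sequencing read proportions per bin multiplied by bin number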
- reported.conditions: c terminus: a fixed tail appended
quantity.name: protein stability index
Enter the number alone.

In: Find the recorded protein stability index belonging to TVHEVDIFRCFCPVFLHSQMLTEL and report it.
Out: 2.11

In: Entry TVHEVDIFRCRCPVFLHSQMLWEL has what protein stability index?
Out: 1.38

In: Entry TVHEVDIFRMFCPVFLHSQMLWEL : reported protein stability index = ?
Out: 3.4
